# Tested on: Granta-519
# Assay Procedure: Cytotoxicity: Mantle Cell Lymphoma
# Conditions Used: Granta-519
Assay Readout: IC50 (nM)
Kindly provide the numeric value in nM only, without the unit symbol.

Ask: Consider the compound CN(C)CCNC(=O)c1cccc(NC(=O)Nc2ccc(N(CCCl)CCCl)cc2)c1.Cl [BO-1055, ureidomustine] and give its measured IC50.
Result: 1450

----------
# Tested on: H187
# Assay Procedure: 72 hr cytotoxicity: SCLC classic
# Assay type: cell-based
# Conditions Used: Homo sapiens, NCI-H187; read-out: IC50
Assay Readout: pIC50
pIC50 here is simply -log10 of the concentration when that concentration is written in mol/L.

Ask: Consider the compound "CC[C@]1(O)C[C@H]2CN(CCc3c([nH]c4ccccc34)[C@@](C(=O)OC)(c3cc4c(cc3OC)N(C=O)[C@H]3[C@@](O)(C(=O)OC)[C@H](OC(C)=O)[C@]5(CC)C=CCN6CC[C@]43[C@@H]65)C2)C1" and give its measured pIC50.
Result: 9.00

----------
# System: AML cell lines, MLL-AF9 transduced CD34+ lines and primary AML LSC
# Assay Procedure: Cytotoxicity on leukemia panel
# Conditions Used: Homo sapiens, MLL-AF9, read-out: IC50 range, MLL-AF9+N-RASmut lines
Assay Readout: IC50

Ask: Consider the compound "CN(C)CCNC(=O)c1cccc(NC(=O)Nc2ccc(N(CCCl)CCCl)cc2)c1.Cl" and give its measured IC50.
Result: 810 to 2910 nM

----------
# Tested on: COG-LL-317
# Assay Procedure: Cytotoxicity: T-ALL
# Type: cell-based
# Conditions Used: Homo sapiens; COG-LL-317; read-out: IC50
Assay Readout: IC50 (µM)
Kindly provide the numeric value in µM only, without the unit symbol.

Ask: Consider the molecule Cn1nnc2c(C(N)=O)ncn2c1=O [Temozolomide] and give its measured IC50.
Result: 181

----------
# Tested on: SUDHL-4
# Conditions Used: human
Assay Readout: IC50 (nM)
Kindly provide the numeric value in nM only, without the unit symbol.

Ask: Consider the molecule "CN(C)CCNC(=O)c1cccc(NC(=O)Nc2ccc(N(CCCl)CCCl)cc2)c1.Cl" and give its measured IC50.
Result: 1640

----------
# System: H23
# Assay Procedure: cells
# Type: cell-based
# Conditions Used: Homo sapiens, NCI-H23; read-out: IC50
Assay Readout: IC50

Ask: Consider the molecule O=NN(CCCl)C(=O)NCCCl [BCNU, Carmustine] and give its measured IC50.
Result: ≥ 100 µM

----------
# System: HUVEC
# Assay Procedure: 72 hr cytotoxicity: Umbilical endothelium
# Format: cell-based
# Conditions Used: Homo sapiens, HUVEC, 72 h
Form field: pIC50 (one value per entry).
pIC50 here is simply -log10 of the concentration when that concentration is written in mol/L.

Past entries and their recorded results:
# Substance Smiles, Target Or Test System, pIC50
records = [
    ("CN(C)CCNC(=O)c1cccc(NC(=O)Nc2ccc(N(CCCl)CCCl)cc2)c1.Cl", "HUVEC", 4.22),
    ("Cn1c(CCCC(=O)O)nc2cc(N(CCCl)CCCl)ccc21", "HUVEC", 3.85),
]

Ask: Consider the compound "N[C@@H](Cc1ccc(N(CCCl)CCCl)cc1)C(=O)O" and give its measured pIC50.
Result: 3.49

----------
# System: H1975 (EGFR)
# Assay Procedure: cells
# Assay type: cell-based
# Conditions Used: Homo sapiens, NCI-H1975
Assay Readout: IC50

Ask: Consider the compound "CN(C)CCNC(=O)c1cccc(NC(=O)Nc2ccc(N(CCCl)CCCl)cc2)c1.Cl" and give its measured IC50.
Result: ≥ 10 µM

----------
# Tested on: HOS
# Assay Procedure: Cytotoxicity: Osteosarcoma
# Conditions Used: Homo sapiens, read-out: cytotoxic activity (IC50)
Assay Readout: IC50 (µM)
Kindly provide the numeric value in µM only, without the unit symbol.

Ask: Consider the molecule "CN(C)CCNC(=O)c1cccc(NC(=O)Nc2ccc(N(CCCl)CCCl)cc2)c1.Cl" and give its measured IC50.
Result: 0.43

----------
# Tested on: AML-2 MLL-AF9 patient LSC
# Assay Procedure: LSC assay (MS5 co-culture, week 2 CAFC)
# Format: cell-based
# Conditions Used: Homo sapiens, AML-2 LSC
Assay Readout: pIC50
pIC50 here is simply -log10 of the concentration when that concentration is written in mol/L.

# Substance Smiles, pIC50
records = [
    ("CN(C)CCNC(=O)c1cccc(NC(=O)Nc2ccc(N(CCCl)CCCl)cc2)c1.Cl", 6.92),
]

Ask: Lookup: pIC50 / AML-2 MLL-AF9 patient LSC / "N[C@@H](Cc1ccc(N(CCCl)CCCl)cc1)C(=O)O"
Result: 5.15

----------
# System: H3122 (EML4-ALK)
# Assay Procedure: cells
# Format: cell-based
# Conditions Used: Homo sapiens, NCI-H3122
Assay Readout: IC50 (µM)
Kindly provide the numeric value in µM only, without the unit symbol.

Ask: Consider the compound "CN(C)CCNC(=O)c1cccc(NC(=O)Nc2ccc(N(CCCl)CCCl)cc2)c1.Cl" and give its measured IC50.
Result: 4.87

----------
# System: Rhabdomyosarcoma cell lines
# Assay Procedure: Cytotoxicity on sarcoma panel
# Assay type: cell-based
# Conditions Used: Homo sapiens, read-out: IC50 range
Assay Readout: IC50 (nM)
Kindly provide the numeric value in nM only, without the unit symbol.

Ask: Consider the compound COc1cccc2c1C(=O)c1c(O)c3c(c(O)c1C2=O)C[C@@](O)(C(=O)CO)C[C@@H]3O[C@H]1C[C@H](N)[C@H](O)[C@H](C)O1 [Doxorubicin] and give its measured IC50.
Result: 11

----------
# System: SVGp12
# Assay Procedure: 72 hr cytotoxicity: Astroglia
# Type: cell-based
# Conditions Used: Homo sapiens; SVGp12, 72 hr
pIC50: −log10 of the molar value.
Assay Readout: pIC50

Ask: Consider the compound "CN(C)CCNC(=O)c1cccc(NC(=O)Nc2ccc(N(CCCl)CCCl)cc2)c1.Cl" and give its measured pIC50.
Result: ≤ 5.00

----------
# Assay Procedure: Non-GLP acute 14-day intravenous toxicity
# Conditions Used: ICR, mouse, in vivo, iv, LD50 95% confidence interval, ICR mice, single i.v.
Assay Readout: LD50 at 14 days

Ask: Consider the molecule "CN(C)CCNC(=O)c1cccc(NC(=O)Nc2ccc(N(CCCl)CCCl)cc2)c1.Cl" and give its measured LD50 at 14 days.
Result: 58.8 to 107 mg/kg

----------
# Tested on: Ewing's sarcoma cell lines
# Assay Procedure: Cytotoxicity on sarcoma panel
# Format: cell-based
# Conditions Used: Homo sapiens; read-out: IC50 range
Assay Readout: IC50

Ask: Consider the molecule Cn1nnc2c(C(N)=O)ncn2c1=O [Temozolomide] and give its measured IC50.
Result: 245 to 405 µM

----------
# Test system: H460
# Assay Procedure: Cytotoxicity: Large-Cell Lung Cancer
# Assay type: cell-based
# Conditions Used: Homo sapiens, NCI-H460
Assay Readout: IC50 (µM)
Kindly provide the numeric value in µM only, without the unit symbol.

Ask: Consider the compound "CN(C)CCNC(=O)c1cccc(NC(=O)Nc2ccc(N(CCCl)CCCl)cc2)c1.Cl" and give its measured IC50.
Result: 6.2

----------
# System: H125
# Assay Procedure: cells
# Format: cell-based
# Conditions Used: Homo sapiens, NCI-H125
Assay Readout: pIC50
pIC50 here is simply -log10 of the concentration when that concentration is written in mol/L.

Ask: Consider the compound "N[C@@H](Cc1ccc(N(CCCl)CCCl)cc1)C(=O)O" and give its measured pIC50.
Result: 5.09

----------
# Test system: Human T-ALL primary cells
# Assay Procedure: Cytotoxicity: patient sample
# Assay type: cell-based
Assay Readout: pIC50
pIC50 here is simply -log10 of the concentration when that concentration is written in mol/L.

Ask: Consider the molecule "CN(C)CCNC(=O)c1cccc(NC(=O)Nc2ccc(N(CCCl)CCCl)cc2)c1.Cl" and give its measured pIC50.
Result: 6.00

----------
# Tested on: H322
# Assay Procedure: cells
# Format: cell-based
# Conditions Used: Homo sapiens, NCI-H322; read-out: IC50
Assay Readout: IC50

Ask: Consider the compound O=NN(CCCl)C(=O)NCCCl [BCNU, Carmustine] and give its measured IC50.
Result: ≥ 200 µM

----------
# System: MOLT-4
# Assay Procedure: Cytotoxicity: T-ALL
# Type: cell-based
# Conditions Used: Homo sapiens, read-out: IC50
Assay Readout: IC50 (µM)
Kindly provide the numeric value in µM only, without the unit symbol.

Ask: Consider the compound Cn1nnc2c(C(N)=O)ncn2c1=O [Temozolomide] and give its measured IC50.
Result: 182

----------
# Tested on: Ly8
# Assay Procedure: Cytotoxicity: DLBCL GCB
# Conditions Used: read-out: cytotoxicity IC50, single agent
Assay Readout: pIC50
pIC50 here is simply -log10 of the concentration when that concentration is written in mol/L.

Ask: Consider the compound CN(C)CCNC(=O)c1cccc(NC(=O)Nc2ccc(N(CCCl)CCCl)cc2)c1.Cl [BO-1055, ureidomustine] and give its measured pIC50.
Result: 6.40
